The measured values listed here are drawn from patent US8980886B2.

Attribute: chromatographic logP
assay: logP by HPLC on reversed-phase columns (C 18), EEC Directive 79/831 Annex V.A8; format: physicochemical; details: reversed-phase HPLC column (C 18), pH 2.7, HPLC, reversed-phase C 18, acidic range pH 2.7; table of compounds; read-out: log P
Observable: chromatographic logP

>>> print(df.to_string())
                            molecule_smiles  value_observed
0  Cc1cc(Br)cc(C(=O)NC(C)(C)C)c1NC(=O)c1sc(Cn2nnc(C(F)(F)F)n2)nc1-c1ccccc1Cl            4.69
1  Cc1cc(Cl)cc(C(=O)NC(C)C)c1NC(=O)c1nc(Cn2nnc(C(F)(F)F)n2)oc1-c1ccccc1Cl            4.11
2  Cc1cc(C#N)cc(C(N)=O)c1NC(=O)c1cnc(Cn2nnc(C(F)(F)F)n2)nc1-c1ccccc1Cl            2.69
